# protein stability index values compiled below
B1: STK38L (parent)
chain: FLPGGDMMTLLMKKDTLTEEETQF

- Variants of: B1
- Protocol: protein stability index of a GFP-peptide fusion (GPS, HEK-293T) (PSI 1-6); higher = more stable;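 also: lentivirally expressed fusions sorted by FACS into six bins by GFP to DsRed ratio, PSI derived from sequencing read proportions per bin multiplied by bin number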
- Measurement setup: c terminus: a fixed tail appended
Observation type: protein stability index

Mutation code: D15W
Reading: 1.62
//
Mutation code: T9Q
Reading: 2.69
//
Mutation code: Q23K
Reading: 2.45
//
Mutation code: G4R
Reading: 3.26
//
Mutation code: T16Q
Reading: 2.17
//
Mutation code: L11H
Reading: 3.43
//
Mutation code: G4H
Reading: 3.29
//
Mutation code: T16E
Reading: 2.19
//
Mutation code: K14I
Reading: 1.96
//
Mutation code: E20R
Reading: 1.95
//
Mutation code: E19I
Reading: 2.02
//
Mutation code: Q23I
Reading: 2.12
//
Mutation code: L11K
Reading: 3.91
//
Mutation code: P3I
Reading: 2.31
//
Mutation code: T9E
Reading: 3.2
//
Mutation code: E21F
Reading: 1.2
//
Mutation code: F24V
Reading: 2.65
//
Mutation code: K14H
Reading: 2.38
//
Mutation code: K13A
Reading: 2.21
//
Mutation code: E20Q
Reading: 1.76
//
Mutation code: T16S
Reading: 2.13
//
Mutation code: G4P
Reading: 3.95
